System: NCI-H1975
Assay Comment: relative viability (nuclei count vs DMSO), 5 days (fraction); higher = more cells survive
Condition Description: first compound 0.253 µM
Endpoint: relative viability
Give bare numbers.

Consider the following illustrative entries.
Compound: O=c1cc(-c2cccc3c2Sc2ccccc2S3)oc(N2CCOCC2)c1 + N=C(N)NC(=N)NCCc1ccccc1 [Phenformin] (partner 250 µM)
relative viability: 0.488

Compound: COc1nc(C)cnc1NS(=O)(=O)c1cccnc1-c1ccc(-c2nnco2)cc1 [Zibotentan] + CS(=O)(=O)CCNCc1ccc(-c2ccc3ncnc(Nc4ccc(OCc5cccc(F)c5)c(Cl)c4)c3c2)o1 [Lapatinib] (partner 2 µM)
relative viability: 0.8

Compound: O=c1cc(-c2cccc3c2Sc2ccccc2S3)oc(N2CCOCC2)c1 + C[C@@H](Oc1cc(-c2cnn(C3CCNCC3)c2)cnc1N)c1c(Cl)ccc(F)c1Cl [Crizotinib] (partner 1 µM)
relative viability: 1.02

Compound: COc1nc(C)cnc1NS(=O)(=O)c1cccnc1-c1ccc(-c2nnco2)cc1 [Zibotentan] + CCNC(=O)c1noc(-c2cc(C(C)C)c(O)cc2O)c1-c1ccc(CN2CCOCC2)cc1 [Luminespib] (partner 0.01 µM)
relative viability: 0.0756

Return reported relative viability values for all items listed beneath this line.
1. O=c1cc(-c2cccc3c2Sc2ccccc2S3)oc(N2CCOCC2)c1 + CS(=O)(=O)N1CCN(Cc2cc3nc(-c4cccc5[nH]ncc45)nc(N4CCOCC4)c3s2)CC1 [Pictilisib] (partner 1 µM)
2. O=c1cc(-c2cccc3c2Sc2ccccc2S3)oc(N2CCOCC2)c1 + O=C(CCCCCCC(=O)Nc1ccccc1)NO [Vorinostat] (partner 1 µM)

output:
1: 0.311; 2: 0.827

Return reported relative viability values for all items listed beneath this line.
1. O=c1cc(-c2cccc3c2Sc2ccccc2S3)oc(N2CCOCC2)c1 + CC(C)C[C@H](NC(=O)[C@H](Cc1ccccc1)NC(=O)c1cnccn1)B(O)O [Bortezomib] (partner 0.002 µM)
2. O=c1cc(-c2cccc3c2Sc2ccccc2S3)oc(N2CCOCC2)c1 + COc1cc2c(Oc3ccc(NC(=O)C4(C(=O)Nc5ccc(F)cc5)CC4)cc3F)ccnc2cc1OCCCN1CCOCC1 [Foretinib] (partner 0.25 µM)

output:
1: 0.419; 2: 0.924
